system: DeltatarO mutant; test: S. aureus survival, RN4220 and DeltatarO strains – OD600, teichoic acid synthesis inhibitors, primary screen (AID 463173); conditions: S. aureus RN4220 wild type/DeltatarO growth, OD600, 18 h, screened at 18.75 µg/mL (by protocol)
Among all 52,000 compounds or so, about 4,300 (8.3%) were called active. Cut-off read from the data, not from the text of the source: active = survival mostly below about 52% (no sharp cut-off); inactive = mostly above about 56%. For the sample, actives were picked, then their nearest neighbours and some compounds at random.
Result category, one only: Y for active, N for inactive

Reference set (3 entries):
# compound, assigned_class
records = [
    ("CCc1ccccc1NC(=O)CSc1nc2ccccc2nc1Cc1cccc(OC)c1", "N"),
    ("CC(C)c1ccc(NC(=O)c2ccc(F)c(S(=O)(=O)N3CCCC3)c2)cc1", "N"),
    ("COc1cccc(C(c2nnnn2CCC(C)C)N2CCN(c3cccc(C)c3C)CC2)c1OC (configuration not stated)", "N"),
]

Inquiry: Test call for this compound, please: CCc1ccc(-c2nc(CS(=O)CC(=O)NCCc3ccc(Cl)cc3)c(C)o2)cc1 (configuration not stated)
Reply text: N

Inquiry: Test call for this compound, please: "CCN(Cc1ccccc1)C(=O)CCc1c(C)nc2c(c(C)nn2-c2ccc(C)c(C)c2)c1C"
Reply text: N

Inquiry: Test call for this compound, please: "Cc1cc(Nc2cccc(Cl)c2)nc2ccc(NC(=O)c3cccnc3)cc12"
Reply text: N

Inquiry: Test call for this compound, please: "O=C(Nc1cccs1)Nc1cc(C(F)(F)F)ccc1Cl"
Reply text: Y

Inquiry: Test call for this compound, please: CCN(C(=O)CSc1nc2ccccc2n1CC(=O)N1CCCC(C)C1)c1ccccc1 (configuration not stated)
Reply text: N

Inquiry: Test call for this compound, please: "Cc1ccc(C(=O)CSc2ncn(-c3ccccc3)n2)c(C)c1"
Reply text: N

Inquiry: Test call for this compound, please: "Cc1ccc(NC(=O)Nc2cccs2)c(C)c1"
Reply text: N

Inquiry: Test call for this compound, please: "COc1ccc(CNC(=O)Cn2c(=O)nc(-c3ccccc3F)c3cc(Cl)ccc32)cc1"
Reply text: N

Inquiry: Test call for this compound, please: COc1ccc(N2CC(C(=O)NCc3nnnn3-c3ccc(C)c(C)c3)CC2=O)cc1 (configuration not stated)
Reply text: N

Inquiry: Test call for this compound, please: "O=C(Nc1cccs1)Nc1ccc(F)cc1F"
Reply text: N

====

test system: DeltatarO mutant; assay: S. aureus survival, RN4220 and DeltatarO strains – OD600, teichoic acid synthesis inhibitors, primary screen (AID 463173); conditions: S. aureus RN4220 wild type/DeltatarO growth, OD600, 18 h, active compounds read low, screened at 18.75 µg/mL (by protocol)
The whole screen tested about 52,000 compounds, of which about 4,300 (8.3%) were called active. Only a selection was taken, and actives are over-represented in it overall.
Lab note: cut-off is 70%. Strictly less in survival is met. Exactly 70% or more is not met.

# compound, target_of_assay, assigned_class
measured = [
    ("CCN1CCN(CCC(=O)Nc2ccc(OC)cc2)CC1", "DeltatarO mutant", "not met"),
    ("COC(=O)c1cc2occc2n1Cc1ccc(F)cc1Cl", "DeltatarO mutant", "met"),
    ("O=S(=O)(Nc1cccc(-c2ccc(N3CCOCC3)nn2)c1)c1ccc(F)cc1F", "DeltatarO mutant", "met"),
    ("COC(=O)c1cc2sccc2n1Cc1ccc(F)cc1Cl", "DeltatarO mutant", "met"),
    ("CCOc1ccc(CCNC(=O)C2CC(=O)N(CCc3ccc(OC)c(OC)c3)C2)cc1OCC (stereo unspecified)", "DeltatarO mutant", "not met"),
]

Inquiry: Is survival strictly under 70% for the entry "CCCS(=O)(=O)c1ncc(Cl)c(C(=O)Nc2c(C(=O)c3ccccc3)oc3ccccc23)n1" ?
Reply text: not met

Inquiry: Is survival strictly under 70% for the entry "Cc1ccc(NC(=O)CSc2nc(=O)n(CCN3CCOCC3)c3c2CCC3)c(C)c1" ?
Reply text: not met

Inquiry: Is survival strictly under 70% for the entry "COC(=O)c1cc2oc(C)cc2n1Cc1cc(C)ccc1C" ?
Reply text: met

Inquiry: Is survival strictly under 70% for the entry COc1cccc(NC(=O)C(=O)NCC(c2ccc3c(c2)OCO3)N2CCOCC2)c1 (stereo unspecified) ?
Reply text: met

Inquiry: Is survival strictly under 70% for the entry O=C(NCc1ccco1)C1C2C3CCC(C3)C12 (stereo unspecified) ?
Reply text: not met

Inquiry: Is survival strictly under 70% for the entry "CCOC(=O)C1CCN(C(=O)C2CCN(C3=NS(=O)(=O)C(c4ccc(C)cc4)=C3CC)CC2)CC1" ?
Reply text: not met
